- target.of.assay: GST-Rok (full length) (Bacillus subtilis subsp. subtilis str. …, UniProt O34857 1-191)
- Sequence: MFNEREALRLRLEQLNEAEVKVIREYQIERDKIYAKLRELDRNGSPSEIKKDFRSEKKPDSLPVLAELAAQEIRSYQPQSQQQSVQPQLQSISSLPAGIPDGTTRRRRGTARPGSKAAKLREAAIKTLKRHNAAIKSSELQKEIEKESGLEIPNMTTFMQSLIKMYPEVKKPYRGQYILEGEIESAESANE
- protocol.text: protein binding microarray; Rok is a gene silencer of Bacillus subtilis; high values mean tight binding
- test.parameters: protein: recombinant; tags: GST (pTH5325, pDEST15-Magic modified); dsDNA, one strand shown
Whole data set: some 33,000 sequences, median “e-score” near -0.037, cut for the highest 2% near 0.34. The full list was thinned out, with the highest values kept by preference.
experimental.readout: binding signal

Q) Sample `CTCTATTC` — what was its binding signal?
A) 0.00987 E-score

Q) Sample `CGATATTC` — what was its binding signal?
A) 0.194 E-score

Q) Sample `TCTAACAA` — what was its binding signal?
A) 0.0589 E-score

Q) Sample `GTCCCGCA` — what was its binding signal?
A) -0.196 E-score

Q) Sample `GTACTTTA` — what was its binding signal?
A) 0.377 E-score

Q) Sample `TTATAAAA` — what was its binding signal?
A) 0.236 E-score

Q) Sample `CATTGAAA` — what was its binding signal?
A) -0.0384 E-score

Q) Sample `TACCTAAA` — what was its binding signal?
A) 0.37 E-score

Q) Sample `CCGCGGCG` — what was its binding signal?
A) -0.19 E-score

Q) Sample `AAACAGGA` — what was its binding signal?
A) 0.00183 E-score

Q) Sample `TATACATA` — what was its binding signal?
A) 0.37 E-score

Q) Sample `ATACTATA` — what was its binding signal?
A) 0.396 E-score

Q) Sample `AACCTAAA` — what was its binding signal?
A) 0.102 E-score

Q) Sample `CCTAATTC` — what was its binding signal?
A) 0.0288 E-score

Q) Sample `ACTAATTA` — what was its binding signal?
A) 0.438 E-score

Q) Sample `TATACAGA` — what was its binding signal?
A) 0.342 E-score

Q) Sample `TTCCCCAA` — what was its binding signal?
A) -0.0604 E-score

Q) Sample `TCCGTAGA` — what was its binding signal?
A) 0.118 E-score

Q) Sample `AGTCAGCC` — what was its binding signal?
A) -0.00495 E-score

Q) Sample `AACCTTAC` — what was its binding signal?
A) 0.0321 E-score

Q) Sample `ACGTCACA` — what was its binding signal?
A) -0.0872 E-score

Q) Sample `GCGCAGAA` — what was its binding signal?
A) -0.0702 E-score

Q) Sample `ACAAGTAA` — what was its binding signal?
A) 0.185 E-score

Q) Sample `ACAACTCA` — what was its binding signal?
A) 0.097 E-score

Q) Sample `ATCAGCAA` — what was its binding signal?
A) -0.0224 E-score

Q) Sample `ATATATTC` — what was its binding signal?
A) 0.34 E-score

Q) Sample `ACTAATTG` — what was its binding signal?
A) 0.184 E-score

Q) Sample `ACTTGCCG` — what was its binding signal?
A) -0.0504 E-score

Q) Sample `CGTTTGTA` — what was its binding signal?
A) 0.138 E-score

Q) Sample `CAGCGTGA` — what was its binding signal?
A) -0.12 E-score

Q) Sample `CAGTTTTC` — what was its binding signal?
A) 0.0134 E-score

Q) Sample `CACTGACA` — what was its binding signal?
A) -0.161 E-score

Q) Sample `AGTTTGTC` — what was its binding signal?
A) 0.0187 E-score

Q) Sample `CTAATTAC` — what was its binding signal?
A) 0.329 E-score

Q) Sample `CTACTATC` — what was its binding signal?
A) 0.323 E-score

Q) Sample `ACATAGAT` — what was its binding signal?
A) 0.346 E-score

Q) Sample `AGAATAAG` — what was its binding signal?
A) 0.105 E-score

Q) Sample `TCTCTGCA` — what was its binding signal?
A) 0.0197 E-score

Q) Sample `AGAAACAT` — what was its binding signal?
A) 0.155 E-score

Q) Sample `GCTCCATA` — what was its binding signal?
A) 0.0969 E-score

Q) Sample `CAATATTC` — what was its binding signal?
A) 0.21 E-score

Q) Sample `GTACTAAA` — what was its binding signal?
A) 0.241 E-score

Q) Sample `ATTTTGTA` — what was its binding signal?
A) 0.232 E-score

Q) Sample `TCTAGTCA` — what was its binding signal?
A) 0.183 E-score

Q) Sample `ATCAGAGC` — what was its binding signal?
A) -0.105 E-score

Q) Sample `GTACTATA` — what was its binding signal?
A) 0.444 E-score

Q) Sample `GAATATTC` — what was its binding signal?
A) 0.417 E-score

Q) Sample `ATAATTAC` — what was its binding signal?
A) 0.385 E-score

Q) Sample `AGACTATA` — what was its binding signal?
A) 0.286 E-score

Q) Sample `ACTAGGCG` — what was its binding signal?
A) -0.156 E-score

Q) Sample `CTAATTAG` — what was its binding signal?
A) 0.375 E-score

Q) Sample `CCGGCAGC` — what was its binding signal?
A) -0.14 E-score

Q) Sample `GTATAACA` — what was its binding signal?
A) 0.208 E-score

Q) Sample `ATACTCTC` — what was its binding signal?
A) -0.0829 E-score

Q) Sample `GCTAATTA` — what was its binding signal?
A) 0.325 E-score

Q) Sample `CTATAATC` — what was its binding signal?
A) 0.279 E-score

Q) Sample `AGCTGCCT` — what was its binding signal?
A) -0.125 E-score

Q) Sample `TAGCAGGA` — what was its binding signal?
A) -0.0921 E-score

Q) Sample `AGATAGAC` — what was its binding signal?
A) 0.108 E-score

Q) Sample `CAGATAGA` — what was its binding signal?
A) 0.172 E-score

Q) Sample `GATACATC` — what was its binding signal?
A) 0.186 E-score

Q) Sample `ATACCGAC` — what was its binding signal?
A) 0.0836 E-score

Q) Sample `AACCTATA` — what was its binding signal?
A) 0.239 E-score

Q) Sample `ATAATTAG` — what was its binding signal?
A) 0.317 E-score

Q) Sample `AGTGGTCC` — what was its binding signal?
A) -0.177 E-score

Q) Sample `ATGGTGAG` — what was its binding signal?
A) -0.0135 E-score

Q) Sample `ATACCGAT` — what was its binding signal?
A) 0.342 E-score

Q) Sample `GTAATTAA` — what was its binding signal?
A) 0.181 E-score

Q) Sample `AGTCCCAT` — what was its binding signal?
A) -0.144 E-score

Q) Sample `CTCATCCA` — what was its binding signal?
A) 0.013 E-score

Q) Sample `CGCCCTAC` — what was its binding signal?
A) -0.152 E-score

Q) Sample `AGAGTTAC` — what was its binding signal?
A) 0.152 E-score

Q) Sample `GGACTATA` — what was its binding signal?
A) 0.0812 E-score

Q) Sample `GGCATCTA` — what was its binding signal?
A) -0.0204 E-score

Q) Sample `TGCGGGAA` — what was its binding signal?
A) -0.19 E-score

Q) Sample `CCTAATTA` — what was its binding signal?
A) 0.228 E-score

Q) Sample `ATACTATG` — what was its binding signal?
A) 0.271 E-score

Q) Sample `GGAGCAGA` — what was its binding signal?
A) -0.132 E-score

Q) Sample `AATGACCG` — what was its binding signal?
A) -0.0639 E-score

Q) Sample `GTAATTAC` — what was its binding signal?
A) 0.421 E-score

Q) Sample `ATAATTAA` — what was its binding signal?
A) 0.29 E-score

Q) Sample `AAGCCTGA` — what was its binding signal?
A) -0.131 E-score

Q) Sample `AAATATTC` — what was its binding signal?
A) 0.251 E-score

Q) Sample `AATACATG` — what was its binding signal?
A) 0.108 E-score

Q) Sample `GAAGAAGA` — what was its binding signal?
A) -0.113 E-score

Q) Sample `CCGGCTGA` — what was its binding signal?
A) -0.0957 E-score

Q) Sample `TATACACA` — what was its binding signal?
A) 0.2 E-score

Q) Sample `ACATAGAC` — what was its binding signal?
A) 0.0568 E-score

Q) Sample `ACCGCCAC` — what was its binding signal?
A) -0.135 E-score

Q) Sample `ACATAGAG` — what was its binding signal?
A) 0.00988 E-score

Q) Sample `ATGAGGGC` — what was its binding signal?
A) -0.183 E-score
